The values you see were collected from patent US20110212084A1.

# assayed-system: T1, cynomolgus IgE (recombinant chimaeric D12 variable region / cynomolgus IgE constant region) (cynomolgus monkey (constant region))
# T1 construct: also called cyno IgE; cynomolgus IgE (in house HEK-EBNA derived)
# T1 sequence (heavy, as listed by the source limits assumed, chain 1 of 2): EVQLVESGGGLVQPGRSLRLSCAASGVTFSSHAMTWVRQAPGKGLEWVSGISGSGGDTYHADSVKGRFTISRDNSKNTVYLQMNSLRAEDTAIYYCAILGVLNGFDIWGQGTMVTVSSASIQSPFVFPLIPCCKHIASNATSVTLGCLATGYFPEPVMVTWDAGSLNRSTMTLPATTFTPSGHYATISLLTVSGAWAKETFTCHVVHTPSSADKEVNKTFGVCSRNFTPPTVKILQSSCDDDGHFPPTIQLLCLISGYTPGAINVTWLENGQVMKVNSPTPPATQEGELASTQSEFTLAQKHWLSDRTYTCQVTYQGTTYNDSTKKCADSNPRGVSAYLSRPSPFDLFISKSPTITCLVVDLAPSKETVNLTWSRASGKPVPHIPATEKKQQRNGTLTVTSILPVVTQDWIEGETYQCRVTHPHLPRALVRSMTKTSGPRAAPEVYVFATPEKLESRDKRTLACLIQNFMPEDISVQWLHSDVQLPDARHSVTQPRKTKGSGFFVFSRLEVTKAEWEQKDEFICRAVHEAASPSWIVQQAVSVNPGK
# T1 sequence (light, as listed by the source limits assumed, chain 2 of 2): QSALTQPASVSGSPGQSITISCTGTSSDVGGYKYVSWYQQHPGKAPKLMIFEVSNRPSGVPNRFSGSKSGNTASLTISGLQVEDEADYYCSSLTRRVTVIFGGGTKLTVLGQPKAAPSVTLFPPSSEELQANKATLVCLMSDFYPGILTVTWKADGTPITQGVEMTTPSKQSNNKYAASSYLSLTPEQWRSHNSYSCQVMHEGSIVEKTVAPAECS
# protocol: HTRF receptor-ligand competition, scFv titrated; Eu-cryptate cynomolgus IgE binding to human FcεRI-Fc; geomean
# Protocol: Purified scFv were tested in a receptor-ligand binding HTRF® (Homogeneous Time-Resolved Fluorescence) assay format for inhibition of either human IgE (U266-derived [Ikeyama et. al. 1986. Molecular Immunology 23 (2); p159-167]) or cyno IgE (recombinant, see materials and methods) labelled with europium cryptate (CIS bio International 62EUSPEA), binding to human FcεR1-Fc (in house NS0 cell produced). Example scFv potency data is included in Table 5a […]
measured-endpoint: IC50 (nM)
Give bare numbers, in nM.

Antibody 16 (scFv) (scFv, V domains shown, purified scFv) VH: EVQLLESGGGLVQPGGSLRLSCAAPGFTFSSYAMSWVRQAPGKGLEWVSAISGGSGGRTYYADSVKGRFTISRDNSKNTLYLQMNSLRAEDTAVYYCARHIAVAGTRGFDYWGRGTLVTVSS VL: SYVLTQPPSVSVSPGQTASITCSGDKLGDTYASWYRQRSGQSPVLVIYQDDKRPSGIPERFSGSNSGNTATLTISGTHTMDEADYYCLAWDTRTSGAVFGGGTELTVL : 280
Antibody 7 (scFv) (scFv, V domains shown, purified scFv) VH: EVQLLESGGGLVQPGGSLRLSCAASGFTFSSYAMSWVRQAPGKGLEWVSAISGGGGRTYYADSVKGRFTISRDNSKNTLYLQMNSLRAEDTAVYYCARHIAVAGTRGFDYWGRGTLVTVSS VL: SYVLTQPPSVSASPGQTASITCSGDKLGDTYASWYRQRSGQSPVLVIYQDDKRPSGIPERFSGSNSGNTATLTISGTHTMDEADYYCLAWDTRTSGAVFGGGTKLTVL : 569

For the binder shown here, Antibody 4 (scFv) (scFv, V domains shown, purified scFv) VH: EVQLLESGGGLVQPGGSLRLSCAASGFTFSSYAMSWVRQAPGKGLEWVSAISGSGGRTYYADSVKGRFTISRDNSKNTLYLQMNSLRAEDTAVYYCARHIAVAGTRGFDYWGRGTPVTVSS VL: SFVLTQPPSVSVSPGQTASITCSGDKLGDTYASWYRQRSGQSPVLVIYQDDKRPSGIPERFSGSNSGNTATLTISGTHTMDEADYYCLAWDTRTSGAVFGGGTKLTVL , give the reported IC50. 600
